Origin of measurements: paper PMC12494831

The following molecules are listed with their measured inhibition at 40 µM values.
- Test system: human RBC
- procedure_text: Anti-inflammatory activity: hypotonic solution-induced human RBC hemolysis (560 nm)
- Format: cell-based
- measurement_conditions: 40 µM
readout_name: inhibition at 40 µM (%)

1. O=C(Nc1ccc2c(c1)OCO2)c1cccnc1 [Compound 2j, N-(Benzo[1,3]dioxol-5-yl)nicotinamide]; 68
2. COC(=O)/C=C/c1ccc(OC(=O)c2cccnc2)c(OC)c1; 69.9
3. CCOc1ccc2nc(NC(=O)c3cccnc3)sc2c1; 55
4. COC(=O)C=Cc1cc(OC)c(OC(=O)c2cccnc2)c(OC)c1; 62

---

The following compounds are listed with their measured α-Amylase Inhibition % values.
- target_system: α-amylase (EC.3.2.1.1) (Homo sapiens)
- Sequence (P04746 16-511): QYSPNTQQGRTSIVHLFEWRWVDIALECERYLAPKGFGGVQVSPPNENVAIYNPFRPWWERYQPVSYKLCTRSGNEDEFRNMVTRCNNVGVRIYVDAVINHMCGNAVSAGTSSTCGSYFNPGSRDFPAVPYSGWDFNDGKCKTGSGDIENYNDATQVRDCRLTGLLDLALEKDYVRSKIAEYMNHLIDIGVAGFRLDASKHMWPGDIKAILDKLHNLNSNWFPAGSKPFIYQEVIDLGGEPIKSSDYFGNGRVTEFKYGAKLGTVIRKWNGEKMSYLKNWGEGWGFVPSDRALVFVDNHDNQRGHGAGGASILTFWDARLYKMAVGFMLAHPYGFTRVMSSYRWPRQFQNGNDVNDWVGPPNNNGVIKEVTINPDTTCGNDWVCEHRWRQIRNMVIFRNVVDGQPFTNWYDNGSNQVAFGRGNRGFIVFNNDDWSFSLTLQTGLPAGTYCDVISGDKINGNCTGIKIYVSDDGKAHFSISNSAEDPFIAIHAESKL
- procedure_text: In vitro α-amylase inhibition (starch/DNS, 540 nm)
- Format: biochemical
- measurement_conditions: 10 µg
- Method: α-Amylase enzyme and other chemical reagents are used for enzyme inhibitory activity. The characterized compounds are diluted in an analytical grad solvent (DMSO) system at 1 mg/mL solution concentration. The activity reaction of the synthesized analogues on the enzyme was treated at final concentrations of 2 to 10 µg. […] The enzyme-receptor inhibition efficiency was calculated and compared with the positive control. […]
readout_name: α-Amylase Inhibition %

1. COC(=O)C=Cc1ccccc1OC(=O)c1cccnc1; 29.72%
2. C[C@H]1O[C@H](O[C@H]2[C@H](O)[C@@H](O)[C@@H](O[C@H]3[C@H](O)[C@@H](O)C(O)O[C@@H]3CO)O[C@@H]2CO)[C@H](O)[C@@H](O)[C@@H]1N[C@H]1C=C(CO)[C@@H](O)[C@H](O)[C@H]1O (stereo partly drawn) [Acarbose, reference compound]; 80.38%
3. O=C(Nc1ccc2c(c1)OCO2)c1cccnc1 [Compound 2j, N-(Benzo[1,3]dioxol-5-yl)nicotinamide]; 57.1%
